Molecular target: Ras-related protein Rab-7a (Canis lupus familiaris)
Sequence (P18067 whole entry): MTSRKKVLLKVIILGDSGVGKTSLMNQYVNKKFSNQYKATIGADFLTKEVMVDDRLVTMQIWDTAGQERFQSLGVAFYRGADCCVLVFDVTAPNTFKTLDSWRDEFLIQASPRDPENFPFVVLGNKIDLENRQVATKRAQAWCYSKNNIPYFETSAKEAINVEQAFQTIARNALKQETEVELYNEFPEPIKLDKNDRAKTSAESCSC
Assay: Rab7 GTP binding inhibitors, analog potency, SAR follow-up, biochemical, oxadiazole analogs, multiplex bead flow cytometry (AID 2031)
Conditions: inactive by the depositor's call
Kindly state pKi for each of the entries shown.
Give bare numbers, as −log10 of the molar value.

>>> df
                                   compound  measurement_label  result
0  COc1ccc(-c2noc(CCC(=O)N3CCN(c4cccc(C)c4C)CC3)n2)cc1                pKi    7.00

Measured pKi of Cc1ccc(C)c(N2CCN(C(=O)CCc3nc(-c4ccc(Br)cc4)no3)CC2)c1 [UNM-0000306072] : 7.00
